Kindly state ΔTm FGFR1 for each of the entries shown.
systemName: FGFR1 (Homo sapiens, UniProt P11362)
Construct: purchased in-house DSF panel (SGC Frankfurt)
Sequence (P11362 456-765): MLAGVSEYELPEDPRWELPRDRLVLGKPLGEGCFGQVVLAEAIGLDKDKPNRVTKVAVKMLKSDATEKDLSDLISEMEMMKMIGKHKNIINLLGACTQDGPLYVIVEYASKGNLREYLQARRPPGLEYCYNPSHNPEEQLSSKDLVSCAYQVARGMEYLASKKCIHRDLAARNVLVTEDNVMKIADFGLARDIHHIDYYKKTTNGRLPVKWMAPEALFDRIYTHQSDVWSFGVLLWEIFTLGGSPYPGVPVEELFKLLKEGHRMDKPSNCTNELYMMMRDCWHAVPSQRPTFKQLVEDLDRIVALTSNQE
methodNotes: DSF
Assay type: binding
Experimental: Recombinant protein kinase domains with a concentration of 2 μM were mixed with a 10 μM compound solution in DMSO, 20 mM HEPES, pH 7.5, and 500 mM NaCl. SYPRO Orange (5000×, Invitrogen) was added as a fluorescence probe (1 µl per mL). Subsequently, temperature-dependent protein unfolding profiles were measured, using the QuantStudio™ 5 realtime PCR machine (Thermo Fisher, Waltham, MA, USA). […] The temperature was raised with a step rate of 3 °C per minute. […]
Quick note: give the figure in °C, leave out the unit.

Please report the recorded ΔTm FGFR1 for COC(=O)c1cc(Nc2ccnc(NCCOCCNC(=O)OC(C)(C)C)n2)[nH]n1 [21d] .
0.5

Please report the recorded ΔTm FGFR1 for COC(=O)c1cc(Nc2ccnc(NCc3ccc(NC(=O)OC(C)(C)C)cc3)n2)[nH]n1 [21i] .
0.0

Please report the recorded ΔTm FGFR1 for N#CCc1ccc(Nc2nccc(Nc3cc(C4CC4)[nH]n3)n2)cc1 [compound 1, reference compound] .
4.5

Please report the recorded ΔTm FGFR1 for CC(C)OC(=O)c1cc(Nc2ccnc(NCc3ccc(NC(=O)OC(C)(C)C)cc3)n2)n[nH]1 [42d] .
0.4

Please report the recorded ΔTm FGFR1 for CC(C)(C)OC(=O)Nc1ccc(CNc2nccc(Nc3cc(C(=O)OC(C)(C)C)[nH]n3)n2)cc1 [43d] .
0.6

###

systemName: UKL3 (Homo sapiens, UniProt Q6PHR2);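 note: compound tested at 10 µM with 2 µM protein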
Construct: purchased in-house DSF panel (SGC Frankfurt)
Sequence (Q6PHR2 1-279): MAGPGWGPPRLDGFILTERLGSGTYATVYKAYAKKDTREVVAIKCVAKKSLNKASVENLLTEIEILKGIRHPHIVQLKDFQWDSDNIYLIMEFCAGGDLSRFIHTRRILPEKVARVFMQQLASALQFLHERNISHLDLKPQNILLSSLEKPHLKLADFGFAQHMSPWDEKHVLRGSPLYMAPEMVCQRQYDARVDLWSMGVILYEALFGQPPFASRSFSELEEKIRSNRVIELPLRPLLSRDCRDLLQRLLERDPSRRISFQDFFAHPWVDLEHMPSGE
methodNotes: DSF
Format: binding
measurementKind: ΔTm UKL3 (°C)
Quick note: give the figure in °C, leave out the unit.

Please report the recorded ΔTm UKL3 for CC(C)OC(=O)c1cc(Nc2ccnc(NCc3ccc(NC(=O)OC(C)(C)C)cc3)n2)n[nH]1 [42d] .
2.3

Please report the recorded ΔTm UKL3 for COC(=O)c1cc(Nc2ccnc(NCc3ccc(NC(=O)OC(C)(C)C)cc3)n2)[nH]n1 [21i] .
0.3

Please report the recorded ΔTm UKL3 for N#CCc1ccc(Nc2nccc(Nc3cc(C4CC4)[nH]n3)n2)cc1 [compound 1, reference compound] .
8.3

Please report the recorded ΔTm UKL3 for COC(=O)c1cc(Nc2ccnc(NCCOCCNC(=O)OC(C)(C)C)n2)[nH]n1 [21d] .
0.9

Please report the recorded ΔTm UKL3 for CC(C)(C)OC(=O)Nc1ccc(CNc2nccc(Nc3cc(C(=O)OC(C)(C)C)[nH]n3)n2)cc1 [43d] .
3.3

###

systemName: WNK1 (Homo sapiens)
Construct: purchased in-house DSF panel (SGC Frankfurt)
Sequence (Q9H4A3 206-483): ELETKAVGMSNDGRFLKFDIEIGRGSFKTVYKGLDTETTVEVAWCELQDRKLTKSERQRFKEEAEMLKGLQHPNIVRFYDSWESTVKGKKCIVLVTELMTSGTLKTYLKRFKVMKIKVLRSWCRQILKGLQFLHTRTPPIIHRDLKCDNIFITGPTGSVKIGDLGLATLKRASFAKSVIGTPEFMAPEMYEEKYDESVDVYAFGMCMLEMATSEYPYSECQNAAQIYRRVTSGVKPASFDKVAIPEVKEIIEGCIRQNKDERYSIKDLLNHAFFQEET
methodNotes: DSF
Format: binding
measurementKind: ΔTm WNK1 (°C)
Quick note: give the figure in °C, leave out the unit.

Please report the recorded ΔTm WNK1 for COC(=O)c1cc(Nc2ccnc(NCc3ccc(NC(=O)OC(C)(C)C)cc3)n2)[nH]n1 [21i] .
0.6

Please report the recorded ΔTm WNK1 for N#CCc1ccc(Nc2nccc(Nc3cc(C4CC4)[nH]n3)n2)cc1 [compound 1, reference compound] .
1.1

Please report the recorded ΔTm WNK1 for CC(C)(C)OC(=O)Nc1ccc(CNc2nccc(Nc3cc(C(=O)OC(C)(C)C)[nH]n3)n2)cc1 [43d] .
-0.1

Please report the recorded ΔTm WNK1 for COC(=O)c1cc(Nc2ccnc(NCCOCCNC(=O)OC(C)(C)C)n2)[nH]n1 [21d] .
0.9

Please report the recorded ΔTm WNK1 for CC(C)OC(=O)c1cc(Nc2ccnc(NCc3ccc(NC(=O)OC(C)(C)C)cc3)n2)n[nH]1 [42d] .
0.1

Please report the recorded ΔTm WNK1 for CN[C@@H]1C[C@H]2O[C@@](C)([C@@H]1OC)n1c3ccccc3c3c4c(c5c6ccccc6n2c5c31)C(=O)NC4 [staurosporine, reference compound] .
0.9

Value source: paper PMC9736855
